B1: SNAP91 (parent)
chain: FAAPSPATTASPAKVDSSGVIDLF

- Variants of: B1
- Measurement notes: protein stability index of a GFP-peptide fusion (GPS, HEK-293T) (PSI 1-6); higher = more stable;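 further: lentivirally expressed fusions sorted by FACS into six bins by GFP to DsRed ratio, PSI derived from sequencing read proportions per bin multiplied by bin number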
- Reported conditions: c terminus: a fixed tail appended
Quantity name: protein stability index

> print(dat)
               sequence.text  endpoint.result
 1  FAAPSPATTASPAKVDSSGVIDLI             3.34
 2  FAAPSPATTASPAKVDSSGVIFLF             2.93
 3  FAAPSPATTASAAKVDSSGVIDLF             2.19
 4  FAAKSPATTASPAKVDSSGVIDLF             2.08
 5  FAAPSPATTASPSKVDSSGVIDLF             2.25
 6  FAAPSPATTASGAKVDSSGVIDLF             1.92
 7  FAAPSPATTASPAKVDSSGVIDQF             4.46
 8  FAAPSPAETASPAKVDSSGVIDLF             2.23
 9  FAAPEPATTASPAKVDSSGVIDLF             3.18
10  FAAPSPATTASPAKVDSIGVIDLF              1.9
11  HAAPSPATTASPAKVDSSGVIDLF             3.86
12  FAAPSPATTASPAKVDSSGVIKLF             2.11
13  FAAPSVATTASPAKVDSSGVIDLF             1.82
14  FAAPSKATTASPAKVDSSGVIDLF             2.16
15  FAAPSPATMASPAKVDSSGVIDLF             2.31
